# Test System: Serotonin 1 receptors; 5-HT1B & 5-HT1D (Homo sapiens) (UniProt P28222+P28221)
# Assay Remarks: Binding selectivity for 5-HT 1D/1B receptors
# Type: protein assay
Readout Type: Selectivity ratio
Write the number on its own, no unit after it.

// solved cases for Selectivity ratio follow
Compound Structure | Selectivity ratio
C[C@@H](NC1CCN(CCCc2c[nH]c3ccc(-n4cnnc4)cc23)CC1)c1ccccc1 | 100
CN(Cc1ccccc1)C[C@@H]1CCN(CCc2c[nH]c3ccc(-n4cnnc4)cc23)C1 | 47
c1cc2[nH]cc(CCN3CCCCC3)c2cc1-n1cnnc1 | 3
c1ccc(COC[C@@H]2CCN(CCc3c[nH]c4ccc(-n5cnnc5)cc34)C2)cc1 | 38

Attention now turns to another entry.
### Prompt # get_value(readout='Selectivity ratio', item= c1cc2[nH]cc(CCN3CCCC3)c2cc1-n1cnnc1 )
### Response 9

###

# Test System: UniProt:P28221
# Sequence (P28221 whole entry): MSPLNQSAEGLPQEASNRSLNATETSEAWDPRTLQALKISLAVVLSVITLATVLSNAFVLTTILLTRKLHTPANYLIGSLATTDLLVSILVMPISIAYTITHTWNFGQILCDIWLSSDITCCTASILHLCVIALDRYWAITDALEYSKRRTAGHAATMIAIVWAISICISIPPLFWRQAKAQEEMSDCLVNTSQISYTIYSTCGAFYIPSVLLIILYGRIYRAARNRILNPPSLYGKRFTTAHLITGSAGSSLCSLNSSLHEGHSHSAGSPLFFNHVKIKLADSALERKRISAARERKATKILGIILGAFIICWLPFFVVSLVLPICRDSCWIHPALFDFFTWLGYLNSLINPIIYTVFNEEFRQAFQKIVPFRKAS
# Assay Remarks: Binding affinity by displacement to human cloned 5-hydroxytryptamine 1D receptor in CHO cells by [3H]5-HT displacement.
Readout Type: pIC50
Kindly note that pIC50 refers to -log10 of the concentration in mol/L and answer with the value alone.

// solved cases for pIC50 follow
Molecule | pIC50
OC[C@H](NC1CCN(CCCc2c[nH]c3ccc(-n4cnnc4)cc23)CC1)c1ccccc1 | 8.89
c1cc2[nH]cc(CCCN3CCCCC3)c2cc1-n1cnnc1 | 7.62

### Prompt # get_value(readout='pIC50', item= CN(Cc1ccccc1)[C@@H]1CCN(CCc2c[nH]c3ccc(-n4cnnc4)cc23)C1 )
### Response 7.42

### Prompt # get_value(readout='pIC50', item= c1cc2[nH]cc(CCN3CCCCC3)c2cc1-n1cnnc1 )
### Response 6.70

### Prompt # get_value(readout='pIC50', item= c1ccc(CO[C@@H]2CCN(CCc3c[nH]c4ccc(-n5cnnc5)cc34)C2)cc1 (stereo in doubt; 4c) )
### Response 7.64

###

# Test System: Serotonin 1 receptors; 5-HT1B & 5-HT1D (Homo sapiens) (UniProt P28222+P28221)
# Assay Remarks: Binding selectivity for 5-HT 1D/1B receptors
# Format: protein assay
Readout Type: Selectivity ratio
Write the number on its own, no unit after it.

// solved cases for Selectivity ratio follow
Molecule | Selectivity ratio
CN(Cc1ccccc1)[C@@H]1CCN(CCc2c[nH]c3ccc(-n4cnnc4)cc23)C1 | 5.5
CN(Cc1ccccc1)C1CCN(CCCc2c[nH]c3ccc(-n4cnnc4)cc23)CC1 | 66
OC[C@H](NC1CCN(CCCc2c[nH]c3ccc(-n4cnnc4)cc23)CC1)c1ccccc1 | 88
O=C(c1ccc(F)cc1)C1CCN(CCn2c(=O)[nH]c3ccccc3c2=O)CC1 | 25
OC[C@H](NC1CCN(CCCc2c[nH]c3ccc(-n4cnnc4)cc23)CC1)c1ccc(F)cc1 | 206

### Prompt # get_value(readout='Selectivity ratio', item= c1ccc(CNCC2CCN(CCc3c[nH]c4ccc(-n5cnnc5)cc34)C2)cc1 (single isomer, unassigned) )
### Response 31

###

# Selectivity ratio per record follows
# Test System: Serotonin 1 receptors; 5-HT1B & 5-HT1D (Homo sapiens) (UniProt P28222+P28221)
# Assay Remarks: Binding selectivity for 5-HT 1D/1B receptors
# Type: protein assay
Write the number on its own, no unit after it.

// solved cases for Selectivity ratio follow
Molecule | Selectivity ratio
c1ccc(CNC[C@@H]2CCN(CCc3c[nH]c4ccc(-n5cnnc5)cc34)C2)cc1 | 94
c1ccc(CNC2CCN(CCCc3c[nH]c4ccc(-n5cnnc5)cc34)CC2)cc1 | 26
c1ccc(CO[C@@H]2CCN(CCc3c[nH]c4ccc(-n5cnnc5)cc34)C2)cc1 (stereo in doubt; 4c) | 12

Attention now turns to another entry.
### Prompt # get_value(readout='Selectivity ratio', item= c1ccc(CO[C@@H]2CCN(CCc3c[nH]c4ccc(-n5cnnc5)cc34)C2)cc1 (stereo in doubt; 4b) )
### Response 23
